# Experimental system: T1, human EpCAM protein (human, UniProt P16422 24-265, biotinylated in the Octet assays (site not stated))
# T1 construct: also called hu EpCAM; biotinylated human EpCAM protein
# T1 sequence: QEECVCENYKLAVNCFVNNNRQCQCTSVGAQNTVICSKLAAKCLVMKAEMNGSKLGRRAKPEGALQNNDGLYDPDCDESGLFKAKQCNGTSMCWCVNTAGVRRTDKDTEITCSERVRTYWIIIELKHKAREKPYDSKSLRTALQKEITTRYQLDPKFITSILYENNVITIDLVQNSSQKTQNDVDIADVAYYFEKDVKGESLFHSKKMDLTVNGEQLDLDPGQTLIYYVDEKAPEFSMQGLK
# Protocol notes: colorimetric ELISA
Property label: Human EpCAM/Control

For orientation, consider the following solved cases.
{"Binder": "EPL127 (VHH) VHH: QVQLQESGGGLVQAGGSLRLSCAAPGFAFNDHAILWFRQAPGKEREGVSEICRDGTTYYTDSVKGRFTISSDNAKNTVYLQMNSVKTDDTAVYYCAVDRRRYYCSGNRAFSSDYYYWGQGTQVTVSS", "Human EpCAM/Control": 5}
{"Binder": "EPL78 (VHH) VHH: QVQLQESGGGLVQPGGSLRLSCATSANRFNINVMGWYRQAPGQQRELVATINIGGSTDYADSVKGRFTISRDNAKNTVYLQLSDLKPEDTAVYYCNVKLRVSGPTGPNVYWGQGTQVTVSS", "Human EpCAM/Control": 17}
{"Binder": "EPL109 (VHH) VHH: QVQLQESGGGLVQPGGSLRLSCASSGFTLDDYTIGWFRQAPGKEREGVSCISRRDDSTYYADSVKGRFTISRDNAKNTVDLQMISLRPEDTAVYYCAATPRSYTLRCLGKFDFQGQGTQVTVSS", "Human EpCAM/Control": 5}
{"Binder": "EPL125 (VHH) VHH: QVQLQESGGGLVQAGGSLRLSCAASGNVFRAATMAWYRQVPEKQREMVATIASGGTTNYADFVKGRFTISRDNAKNTVYLQMNTLKPEDTAVYYCNALYLTSLGPKSYWGQGTQVTVSS", "Human EpCAM/Control": 8}
{"Binder": "EPL43 (VHH) VHH: QVQLQESGGGLVQTGGSLRLSCAASESISSFIAVGWYRQAPGKERELVAGINRSGFTYYTDSVKGRFSISRDNAKNTVLLQMTSLKPEDTAVYYCNAGGLYFSNAYTQGDYWGQGTQVTVSS", "Human EpCAM/Control": 13}
{"Binder": "EPL34 (VHH) VHH: QVQLQESGGGSVQAGGSLRLSCAASGFTFSSYYMSWVRQAPGKGLEWVSGIHYTGDWTNYADSVKGRFTISRDNAKNELYLEMNNLKPEDTAVYYCARGSDKGQGTQVTVSS", "Human EpCAM/Control": 10}
{"Binder": "EPL97 (VHH) VHH: QVQLQESGGGLVQAGGSLRLSCAASGIIFRGTTMGWFRQAPGKQRESVASISPLGTTSYSGSVEGRFTVSRDNAKNTLFLQMNSLKSEDTAVYYCNAIQVTNVGPRVYWGQGTQVTVSS", "Human EpCAM/Control": 8}
{"Binder": "EPL145 (VHH) VHH: QVQLQESGGGLVQAGGSLRLSCAASGFIFRAASMGWFRQSPGNERELVATVSSGGFTNYADSVKGRFTISRDNAKNTVYLQMNSLKPEDTAVYFCGATFVRSDGHHTIYGQGTQVTVSS", "Human EpCAM/Control": 3}

[A] EPL156 (VHH) VHH: QVQLQESGGGLVQPGASLRVSCAASEYILSMYRMAWYRQAPGKVRELVADMSSGGTTNYADFVKGRFTISRDNDRNTVYLQMNRLQPEDTAAYYCNVAGRTGPPSYDAFNNWGQGTQVTVSS
[B] EPL118 (VHH) VHH: QVQLQESGGGLVQAGGSLRLSCAASGFIFRAASMGWFRQSPGNERELVATVSSGDFTNYADSVKGRFTISRDNAKNTVYLQMNSLKPEDTAVYFCGATFVRSDGHHTIYGQGTQVTVSS
[C] EPL86 (VHH) VHH: QVQLQESGGGLVQPGGSLRLSCAASGFTFSDWAMSWVRQAPGKGLEWVSGIHYGDHTTHYADFVKGRFTISRDDAKNTLYLQMNSLKPEDTAVYYCARGSTKGQGTQVTVSS
In: Give the ascending ranking of the items by reported Human EpCAM/Control. Show the ranking through the labels, in the order asked for.
Out: B, C, A
(B: 5, C: 8, A: 16)
